# target_or_system: SmAQP (Schistosoma mansoni)
# Construct: 304 aa membrane protein
# Sequence (C4PYI6 1-304): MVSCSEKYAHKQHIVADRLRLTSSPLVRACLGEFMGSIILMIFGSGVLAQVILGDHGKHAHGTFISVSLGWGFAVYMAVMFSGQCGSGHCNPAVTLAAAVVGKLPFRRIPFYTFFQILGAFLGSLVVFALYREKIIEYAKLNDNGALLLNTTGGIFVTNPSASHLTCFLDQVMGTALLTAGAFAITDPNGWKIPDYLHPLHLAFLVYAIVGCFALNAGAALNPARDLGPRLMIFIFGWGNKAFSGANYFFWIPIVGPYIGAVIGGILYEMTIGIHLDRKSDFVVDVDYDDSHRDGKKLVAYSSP
# measurement_protocol: inhibition of radiolabelled lactate uptake in Xenopus oocytes, variable-slope fit
# settings: read-out: Ki (half maximal inhibitory concentration); Ki50
pIC50: −log10 of the molar value.

compound_structure_string | pIC50
O=C(CCc1ccc(O)cc1)c1c(O)cc(O)cc1O | 4.66
